The origin of these recorded values is ChEMBL document CHEMBL4376900.

Here, each record is paired with measured solubility kinetic at 0.5 h data.
# PROTOCOL_TEXT: Kinetic solubility in pH 2.0 0.01M HCl buffer incubated for 30 mins by nephelometry
# Assay type: physicochemical
# TEST_CONTEXT: read-out: Kinetic_solubility

- COMPOUND: "O=C(O)COc1ccc([C@H]2CC[C@]3(CC2)OOC2(O3)C3CC4CC2CC(C3)C4O)cc1 (some centres not stated)"
  solubility kinetic at 0.5 h: "25 to 50 µg/mL"
- COMPOUND: "O=C(O)c1ccc([C@H]2CC[C@]3(CC2)OOC2(O3)C3CC4CC(C3)CC2C4)cc1 (some centres not stated)"
  solubility kinetic at 0.5 h: "< 1.6 µg/mL"
- COMPOUND: "CS(=O)(=O)O.NC1C2CC3CC1CC(C2)C31OO[C@]2(CC[C@@H](c3ccc(OCC(=O)O)cc3)CC2)O1 (some centres not stated)"
  solubility kinetic at 0.5 h: "< 1.6 µg/mL"
- COMPOUND: "O=C(O)CNC(=O)COc1ccc([C@H]2CC[C@]3(CC2)OOC2(O3)C3CC4CC(C3)CC2C4)cc1 (some centres not stated)"
  solubility kinetic at 0.5 h: "< 3.1 µg/mL"
- COMPOUND: "CC(=O)NC1C2CC3CC1CC(C2)C31OO[C@]2(CC[C@@H](c3ccc(OCC(=O)O)cc3)CC2)O1 (some centres not stated)"
  solubility kinetic at 0.5 h: "12.5 to 25 µg/mL"
- COMPOUND: "O=C(O)c1cccc([C@H]2CC[C@]3(CC2)OOC2(O3)C3CC4CC(C3)CC2C4)c1 (some centres not stated)"
  solubility kinetic at 0.5 h: "< 1.6 µg/mL"
- COMPOUND: "CS(=O)(=O)O.CS(=O)(=O)O.O=C(O)CNCc1ccc([C@H]2CC[C@]3(CC2)OOC2(O3)C3CC4CC2CC(C3)N4)cc1 (some centres not stated)"
  solubility kinetic at 0.5 h: "50 to 100 µg/mL"
- COMPOUND: "CS(=O)(=O)O.O=C(O)CNCc1ccc([C@H]2CC[C@]3(CC2)OOC2(O3)C3CC4CC(C3)CC2C4)cc1 (some centres not stated)"
  solubility kinetic at 0.5 h: "< 6.3 µg/mL"
- COMPOUND: "O=C(O)COc1c(Cl)cc([C@H]2CC[C@]3(CC2)OOC2(O3)C3CC4CC(C3)CC2C4)cc1Cl (some centres not stated)"
  solubility kinetic at 0.5 h: "3.1 to 6.3 µg/mL"
- COMPOUND: "CS(=O)(=O)O.O=C(O)C1CN(Cc2ccc([C@H]3CC[C@]4(CC3)OOC3(O4)C4CC5CC(C4)CC3C5)cc2)C1 (some centres not stated)"
  solubility kinetic at 0.5 h: "< 1.6 µg/mL"
- COMPOUND: "O=C([O-])C1CCN(CCOc2ccc([C@H]3CC[C@]4(CC3)OOC3(O4)C4CC5CC(C4)CC3C5)cc2)CC1.[Na+] (some centres not stated)"
  solubility kinetic at 0.5 h: "< 1.6 µg/mL"
- COMPOUND: "O=C(O)COc1ccc([C@H]2CC[C@]3(CC2)OOC2(O3)C3CC4CC(C3)CC2C4)cc1C(=O)O (some centres not stated)"
  solubility kinetic at 0.5 h: "> 100 µg/mL"
- COMPOUND: "CS(=O)(=O)O.O=C(O)COc1ccc([C@H]2CC[C@]3(CC2)OOC2(O3)C3CC4CC2CC(C3)N4)cc1 (some centres not stated)"
  solubility kinetic at 0.5 h: "< 1.6 µg/mL"
- COMPOUND: "O=C(O)CCCCOc1ccc([C@H]2CC[C@]3(CC2)OOC2(O3)C3CC4CC(C3)CC2C4)cc1 (some centres not stated)"
  solubility kinetic at 0.5 h: "< 1.6 µg/mL"
- COMPOUND: "O=C(O)COc1ccc([C@H]2CC[C@]3(CC2)OOC2(O3)C3CC4CC(C3)CC2C4)cc1 (some centres not stated)"
  solubility kinetic at 0.5 h: "6.3 to 12.5 µg/mL"
- COMPOUND: "O=C(O)COc1ccc([C@H]2CC[C@]3(CC2)OOC2(O3)C3CC4CC(C3)CC2C4)cc1Cl (some centres not stated)"
  solubility kinetic at 0.5 h: "3.1 to 6.3 µg/mL"
- COMPOUND: "CS(=O)(=O)NC(=O)COc1ccc([C@H]2CC[C@]3(CC2)OOC2(O3)C3CC4CC(C3)CC2C4)cc1 (some centres not stated)"
  solubility kinetic at 0.5 h: "6.3 to 12.5 µg/mL"

* * *

# Tested on: Schistosoma mansoni
# PROTOCOL_TEXT: Antischistosomal activity against Schistosoma mansoni
# Assay type: functional, organism-based
MEASURED_PROPERTY: IC50 (µM)

- COMPOUND: "O=C(O)COc1ccc([C@H]2CC[C@]3(CC2)OOC2(O3)C3CC4CC(C3)CC2C4)cc1 (stereo partly specified)"
  READING_UNIT: "µM"
  REPORTED: 44

* * *

# PROTOCOL_TEXT: Kinetic solubility in pH 2.0 0.01M HCl buffer incubated for 30 mins by nephelometry
# Assay type: physicochemical
# TEST_CONTEXT: read-out: Kinetic_solubility
Here, each record is paired with measured solubility kinetic at 0.5 h data.

- COMPOUND: "CCOC(=O)COc1ccc([C@H]2CC[C@]3(CC2)OOC2(O3)C3CC4CC(C3)CC2C4)cc1 (stereo partly specified)"
  solubility kinetic at 0.5 h: "< 0.78 µg/mL"
- COMPOUND: "O=C(O)CCCOc1ccc([C@H]2CC[C@]3(CC2)OOC2(O3)C3CC4CC(C3)CC2C4)cc1 (stereo partly specified)"
  solubility kinetic at 0.5 h: "< 1.6 µg/mL"
- COMPOUND: "O=C(O)c1cc([C@H]2CC[C@]3(CC2)OOC2(O3)C3CC4CC(C3)CC2C4)ccc1O (stereo partly specified)"
  solubility kinetic at 0.5 h: "> 100 µg/mL"
- COMPOUND: "CC(C)(Oc1ccc([C@H]2CC[C@]3(CC2)OOC2(O3)C3CC4CC(C3)CC2C4)cc1)C(=O)O (stereo partly specified)"
  solubility kinetic at 0.5 h: "3.1 to 6.3 µg/mL"
- COMPOUND: "O=C(O)COc1ccc([C@H]2CC[C@]3(CC2)OOC2(O3)C3CC4CC2CC(C3)C4(F)F)cc1 (stereo partly specified)"
  solubility kinetic at 0.5 h: "12.5 to 25 µg/mL"
- COMPOUND: "O=C(O)COc1ccc([C@H]2CC[C@]3(CC2)OOC2(O3)C3CC4CC2CC(C3)C4=O)cc1 (stereo partly specified)"
  solubility kinetic at 0.5 h: "50 to 100 µg/mL"

* * *

Here, each record is paired with measured log10 microsomal CLint data.
# PROTOCOL_TEXT: Intrinsic clearance in mouse liver microsomes in presence of NADPH-regenerating system incubated over 60 mins
# Format: ADME, Microsome
# TEST_CONTEXT: read-out: CLH
MEASURED_PROPERTY: log10 microsomal CLint (log10 of the value in µL/min/mg)

- MOLECULE: "O=C(O)COc1ccc([C@H]2CC[C@]3(CC2)OOC2(O3)C3CC4CC2CC(C3)C4(F)F)cc1 (stereo partly drawn)"
  log10 microsomal CLint: 2.11
- MOLECULE: "CS(=O)(=O)O.NC1C2CC3CC1CC(C2)C31OO[C@]2(CC[C@@H](c3ccc(OCC(=O)O)cc3)CC2)O1 (stereo partly drawn)"
  log10 microsomal CLint: 0.90
- MOLECULE: "O=C(O)CCCCOc1ccc([C@H]2CC[C@]3(CC2)OOC2(O3)C3CC4CC(C3)CC2C4)cc1 (stereo partly drawn)"
  log10 microsomal CLint: 1.11
- MOLECULE: "CS(=O)(=O)O.O=C(O)COc1ccc([C@H]2CC[C@]3(CC2)OOC2(O3)C3CC4CC2CC(C3)N4)cc1 (stereo partly drawn)"
  log10 microsomal CLint: 1.43
- MOLECULE: "CC(C)(Oc1ccc([C@H]2CC[C@]3(CC2)OOC2(O3)C3CC4CC(C3)CC2C4)cc1)C(=O)O (stereo partly drawn)"
  log10 microsomal CLint: 0.85

* * *

Here, each record is paired with measured microsomal CLint data.
# PROTOCOL_TEXT: Intrinsic clearance in human liver microsomes in presence of NADPH-regenerating system incubated over 60 mins
# Assay type: ADME, Microsome
# TEST_CONTEXT: read-out: CLH

- MOLECULE: "O=C([O-])C1CCN(CCOc2ccc([C@H]3CC[C@]4(CC3)OOC3(O4)C4CC5CC(C4)CC3C5)cc2)CC1.[Na+] (stereo partly specified)"
  microsomal CLint: "< 7 µL/min/mg"
- MOLECULE: "O=C(O)COc1ccc([C@H]2CC[C@]3(CC2)OOC2(O3)C3CC4CC(C3)CC2C4)cc1C(=O)O (stereo partly specified)"
  microsomal CLint: "< 7 µL/min/mg"
- MOLECULE: "O=C(O)CN1CCC(Oc2ccc([C@H]3CC[C@]4(CC3)OOC3(O4)C4CC5CC(C4)CC3C5)cc2)CC1 (stereo partly specified)"
  microsomal CLint: "< 7 µL/min/mg"
- MOLECULE: "O=C(O)COc1ccc([C@H]2CC[C@]3(CC2)OOC2(O3)C3CC4CC2CC(C3)C4O)cc1 (stereo partly specified)"
  microsomal CLint: "< 7 µL/min/mg"
- MOLECULE: "CS(=O)(=O)O.O=C(O)CNCc1ccc([C@H]2CC[C@]3(CC2)OOC2(O3)C3CC4CC(C3)CC2C4)cc1 (stereo partly specified)"
  microsomal CLint: "< 7 µL/min/mg"
- MOLECULE: "O=C(O)c1cccc([C@H]2CC[C@]3(CC2)OOC2(O3)C3CC4CC(C3)CC2C4)c1 (stereo partly specified)"
  microsomal CLint: "12 µL/min/mg"
